target: Potassium voltage-gated channel subfamily KQT member 1 (Homo sapiens) (UniProt P51787); assay: human KCNQ1 current enhancers – cell-based, thallium flux, high-throughput, primary screen (AID 2648); settings: CHO-K1 KCNQ1, thallium flux FluxOR fluorescence, at 10 µM
Sequence (P51787 whole entry, looked up): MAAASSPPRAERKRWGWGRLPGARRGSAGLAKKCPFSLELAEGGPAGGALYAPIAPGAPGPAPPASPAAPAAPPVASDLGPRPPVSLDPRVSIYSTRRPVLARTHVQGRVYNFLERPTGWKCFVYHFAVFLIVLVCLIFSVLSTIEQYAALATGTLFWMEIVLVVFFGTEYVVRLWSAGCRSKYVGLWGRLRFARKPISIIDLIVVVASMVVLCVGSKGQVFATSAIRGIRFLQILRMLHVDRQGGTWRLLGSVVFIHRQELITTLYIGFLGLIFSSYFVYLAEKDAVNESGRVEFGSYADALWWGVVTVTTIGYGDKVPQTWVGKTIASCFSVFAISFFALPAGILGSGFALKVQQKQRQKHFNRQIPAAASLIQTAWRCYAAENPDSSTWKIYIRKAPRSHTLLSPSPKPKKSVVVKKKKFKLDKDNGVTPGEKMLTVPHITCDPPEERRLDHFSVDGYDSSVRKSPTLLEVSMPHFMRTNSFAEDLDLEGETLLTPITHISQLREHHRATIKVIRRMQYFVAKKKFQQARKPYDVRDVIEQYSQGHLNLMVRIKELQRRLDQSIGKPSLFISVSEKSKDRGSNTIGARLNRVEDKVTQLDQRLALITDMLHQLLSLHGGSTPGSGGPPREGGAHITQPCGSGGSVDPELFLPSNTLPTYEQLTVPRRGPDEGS
The campaign covered roughly 310,000 compounds. About 1,100 (0.35%) were called active.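 Rule for the calls: active = fluorescence ratio B-score, a plate-corrected score, at least three library SD, with initial intensity B-score within 5 SD; inactive = the rest.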 The list comes from a sample in which actives are over-represented; it also holds close analogues and randomly drawn compounds.
Hi there, use one of these labels in your reply, thanks! TRUE = active, FALSE = inactive

Enquiry: # fetch the recorded call for O=C(NC1CCCCC1)c1ccc(-c2ccc(Cl)cc2)o1 here
Return: FALSE

Enquiry: # fetch the recorded call for CC1CCN(S(=O)(=O)c2ccc(NC(=O)C3CC(=O)N(c4ccccc4)C3)cc2)CC1 (stereo unspecified) here
Return: FALSE

Enquiry: # fetch the recorded call for CCN(CC)CCn1c(=S)[nH]c2ncccc2c1=O here
Return: FALSE

Enquiry: # fetch the recorded call for Cc1nnc(Nc2ccccc2F)s1 here
Return: FALSE

Enquiry: # fetch the recorded call for CCc1[nH]nc(C(=O)N2CCCC(CNS(=O)(=O)c3cccs3)C2)c1C (stereo unspecified) here
Return: FALSE

Enquiry: # fetch the recorded call for O=c1c2ccccc2[nH]c(=S)n1CCN1CCC(=C(c2ccc(F)cc2)c2ccc(F)cc2)CC1 here
Return: FALSE

Enquiry: # fetch the recorded call for CCCCn1c(=S)[nH]c2ncccc2c1=O here
Return: TRUE

Enquiry: # fetch the recorded call for Clc1cccc(N=C2NN=C(c3ccc4c(c3)OCCO4)CS2)c1 here
Return: FALSE

Enquiry: # fetch the recorded call for Cc1[nH][nH]c(=O)c1C(c1ccc(-c2ccc(Cl)cc2)o1)c1c(C)[nH][nH]c1=O here
Return: TRUE

Enquiry: # fetch the recorded call for O=S(=O)(Nc1cccc(-c2ccc(N3CCOCC3)nn2)c1)c1ccc(Cl)c(Cl)c1 here
Return: FALSE

Enquiry: # fetch the recorded call for COCCNC(=O)CN1C(=O)CSc2ncccc21 here
Return: FALSE

---

molecular target: Potassium voltage-gated channel subfamily KQT member 1 (Homo sapiens) (UniProt P51787); assay: human KCNQ1 current enhancers – cell-based, thallium flux, high-throughput, primary screen (AID 2648); conditions: CHO-K1 KCNQ1, thallium flux FluxOR fluorescence, at 10 µM
Hit rate of the full screen: of about 310,000 compounds, about 1,100 (0.35%) were called active.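 The calls were made as follows: active = fluorescence ratio B-score, a plate-corrected score, at least three library SD, with initial intensity B-score within 5 SD; inactive = the rest.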 Many of the other results were omitted from the sample, so actives are more common in it than they were.
Hi there, use one of these labels in your reply, thanks! active, inactive

Enquiry: # fetch the recorded call for O=C(NCCc1ccco1)C(=O)NCCC1CCCCN1S(=O)(=O)c1ccccc1 (configuration not stated) here
Return: inactive

Enquiry: # fetch the recorded call for CCOC(=O)c1sc(=S)n2c1[nH]c(=O)c1ccc(C(=O)OC)cc12 here
Return: active

Enquiry: # fetch the recorded call for CN(Cc1cccs1)C(=O)Cc1c[nH]c2ccccc12 here
Return: inactive

Enquiry: # fetch the recorded call for O=[N+]([O-])c1ccccc1S(=O)(=O)Nc1cccc2cccnc12 here
Return: inactive

Enquiry: # fetch the recorded call for O=C(CSc1nccc(=O)[nH]1)Nc1ccc(N2CCOCC2)c(Cl)c1 here
Return: inactive

Enquiry: # fetch the recorded call for CC(=O)c1c(C)[nH]c(C(=O)OCC(=O)Nc2sc3c(c2C#N)CCCC3)c1C here
Return: inactive

Enquiry: # fetch the recorded call for CC1(C)CC[C@]2(C(=O)O)CC[C@]3(C)C(=CCC4[C@@]5(C)CC[C@H](O)C(C)(C)C5[C@H](O)C[C@]43C)[C@@H]2C1 (some centres not stated) here
Return: active

Enquiry: # fetch the recorded call for C/C(=N\NC(=S)Nc1ccc(C)cc1)c1cc2ccccc2o1 here
Return: active

Enquiry: # fetch the recorded call for CN(C)CCCn1c(=O)n(Cc2ccccc2)c(=O)c2c3c(sc21)CCCCC3 here
Return: inactive

Enquiry: # fetch the recorded call for CC(Oc1cccc(Cl)c1)C(=O)Nc1ccc(S(=O)(=O)Nc2ncccn2)cc1 (configuration not stated) here
Return: inactive

Enquiry: # fetch the recorded call for CCn1c(=S)[nH]c2sc3c(c2c1=O)CCCCC3 here
Return: active

Enquiry: # fetch the recorded call for CCOC(=O)c1ccc(Nc2cc3ccccc3c(=O)[nH]2)cc1 here
Return: inactive

Enquiry: # fetch the recorded call for CSc1ncccc1C(=O)Nc1ccc(C)cn1 here
Return: inactive

Enquiry: # fetch the recorded call for CC(=O)Nc1sc2c(c1C(c1cccc(F)c1)N1CCN(CCO)CC1)CCCC2 (configuration not stated) here
Return: inactive

Enquiry: # fetch the recorded call for Cc1ccn2c(=O)c(C(=O)NCCC3=CCCCC3)c(O)nc2c1 here
Return: inactive

Enquiry: # fetch the recorded call for CC1(C)C2CC[C@]3(C)C(CC=C4[C@@H]5C[C@@](C)(CO)CC[C@]5(C(=O)O)CC[C@]43C)[C@@]2(C)CC[C@@H]1O (some centres not stated) here
Return: inactive

Enquiry: # fetch the recorded call for O=C(c1cccs1)n1nc(NCc2ccccc2)nc1NCc1ccccc1 here
Return: inactive

Enquiry: # fetch the recorded call for CC1=C/C(=N\OS(=O)(=O)c2ccccc2)C=CC1=O here
Return: active

Enquiry: # fetch the recorded call for Cc1ccc(NC(=O)c2cc3ccccc3o2)cc1 here
Return: inactive

Enquiry: # fetch the recorded call for CCCc1nc2sc3c(c2c(=O)n1NC(=O)CCCl)CCCC3 here
Return: inactive

Enquiry: # fetch the recorded call for CC(C)COC(=O)C1C2C=CC3(CN(C(C)c4ccc(Br)cc4)C(=O)C13)O2 (configuration not stated) here
Return: inactive

Enquiry: # fetch the recorded call for OC(CNC1CCCC1)COc1ccc(F)cc1 (configuration not stated) here
Return: inactive

Origin of measurements: PubChem BioAssay AID2648
